The reported measurements were obtained from patent US20120251551A1.

# target: human androgen receptor W741C mutant (Homo sapiens, UniProt P10275, W742C)
# Sequence (P10275 1-920 W742C): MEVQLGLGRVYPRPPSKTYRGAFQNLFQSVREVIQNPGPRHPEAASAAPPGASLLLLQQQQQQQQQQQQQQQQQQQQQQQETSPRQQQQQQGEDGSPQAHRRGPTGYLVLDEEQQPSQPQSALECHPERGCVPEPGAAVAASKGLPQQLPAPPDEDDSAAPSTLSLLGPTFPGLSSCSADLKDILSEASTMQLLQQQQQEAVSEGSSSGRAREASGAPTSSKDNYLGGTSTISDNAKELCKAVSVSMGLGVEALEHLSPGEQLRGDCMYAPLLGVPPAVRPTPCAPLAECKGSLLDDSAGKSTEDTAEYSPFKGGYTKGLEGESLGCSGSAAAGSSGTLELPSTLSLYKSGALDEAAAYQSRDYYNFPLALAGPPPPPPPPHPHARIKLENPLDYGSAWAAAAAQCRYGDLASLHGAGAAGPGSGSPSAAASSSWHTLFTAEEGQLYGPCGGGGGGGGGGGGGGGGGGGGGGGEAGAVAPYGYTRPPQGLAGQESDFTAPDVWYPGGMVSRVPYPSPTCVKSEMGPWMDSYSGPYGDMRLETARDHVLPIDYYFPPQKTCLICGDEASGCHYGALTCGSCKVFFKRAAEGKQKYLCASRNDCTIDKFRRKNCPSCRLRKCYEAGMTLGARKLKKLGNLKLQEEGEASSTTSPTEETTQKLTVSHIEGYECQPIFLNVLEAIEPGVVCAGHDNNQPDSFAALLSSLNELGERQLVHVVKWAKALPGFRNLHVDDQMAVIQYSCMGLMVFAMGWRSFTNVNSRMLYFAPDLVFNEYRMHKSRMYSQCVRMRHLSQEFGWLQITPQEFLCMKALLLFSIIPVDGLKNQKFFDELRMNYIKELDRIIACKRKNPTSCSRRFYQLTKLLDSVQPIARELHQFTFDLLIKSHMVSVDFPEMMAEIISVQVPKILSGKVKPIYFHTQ
# procedure.summary: Cell-based transactivation assay for human androgen receptor mutant W741C
quantity.name: IC50 (nM)
Please respond with the number in nM and leave the unit unwritten.

CC(C)(O)COc1ccc(CN2C(=S)N(c3ccc(C#N)c(C(F)(F)F)c3)C(=O)C2(C)C)cn1	115
CC1(C)C(=O)N(c2ccc(C#N)c(C(F)(F)F)c2)C(=S)N1Cc1ccc(-n2cnc(C(F)(F)F)c2)nc1	148
Cn1nccc1-c1ccc(CN2C(=S)N(c3ccc(C#N)c(C(F)(F)F)c3)C(=O)C2(C)C)cn1	99.9
CC1(C)C(=O)N(c2ccc(C#N)c(C(F)(F)F)c2)C(=S)N1Cc1ccccc1	142
CC1(C)C(=O)N(c2ccc(C#N)c(C(F)(F)F)c2)C(=S)N1Cc1ccc(N2CCOCC2)nc1	270
CC1(C)C(=O)N(c2ccc(C#N)c(C(F)(F)F)c2)C(=S)N1Cc1ccc(-n2ccnc2)nc1	216

Prompt: Could you tell me which IC50 is on file for `Cc1cn(-c2ccc(CN3C(=S)N(c4ccc(C#N)c(C(F)(F)F)c4)C(=O)C3(C)C)cn2)cn1` ?
Response: 52.9

Prompt: Can you share its IC50? I mean this molecule: CC1(C)C(=O)N(c2ccc(C#N)c(C(F)(F)F)c2)C(=S)N1CCCCO [reference compound]
Response: 27.1

Prompt: Any idea what its IC50 is? The molecule is CN1C(=S)N(c2ccc(C#N)c(C(F)(F)F)c2)C(=O)C1(C)C [reference compound]
Response: 21.2

====

# procedure.summary: Determination of metabolic stability in vitro (calculation of hepatic in vivo blood clearance)
# Assay type: in vitro ADME
# conditions: pH 7.4, human liver microsomes, calculated from half-life, read-out: calculated hepatic in vivo blood clearance (CL) (converted)
Below: a set of entries, each annotated with reported CLhep predicted at 1 µM.
Return type: number; implicit unit mL/min/kg.

CC1(C)C(=O)N(c2ccc(C#N)c(C(F)(F)F)c2)C(=S)N1Cc1ccc(-c2cccs2)nc1	6.67
CC1(C)C(=O)N(c2ccc(C#N)c(C(F)(F)F)c2)C(=S)N1Cc1ccc(C(F)(F)F)nc1	6.5
CC(C)(O)COc1ccc(CN2C(=S)N(c3ccc(C#N)c(C(F)(F)F)c3)C(=O)C2(C)C)cn1	5.83
CC1(C)C(=O)N(c2ccc(C#N)c(C(F)(F)F)c2)C(=S)N1Cc1cnc(-n2ccnc2)nc1	1.5

Kindly review the next compound as well.
Prompt: Consider the compound shown here: `Cn1cc(-c2ccc(CN3C(=S)N(c4ccc(C#N)c(C(F)(F)F)c4)C(=O)C3(C)C)cn2)cn1` What is its recorded CLhep predicted at 1 µM?
Response: 1.83

====

Collected pIC50 values appear next to each entry.
# target: human androgen receptor E709Y mutant (Homo sapiens, UniProt P10275, E710Y)
# procedure.summary: Cell-based transactivation assay for human androgen receptor mutant E709Y
# pIC50: negative log10 of molar concentration; output just the value

CC1(C)C(=O)N(c2ccc(C#N)c(C(F)(F)F)c2)C(=S)N1Cc1cnc(N2CCOCC2)nc1N	7.71
CC1(C)C(=O)N(c2ccc(C#N)c(C(F)(F)F)c2)C(=S)N1Cc1ccc(OCCN2CCOCC2)nc1	7.10
COc1ccc(CN2C(=S)N(c3ccc(C#N)c(C(F)(F)F)c3)C(=O)C2(C)C)cc1	7.10
CC1(C)C(=O)N(c2ccc(C#N)c(C(F)(F)F)c2)C(=S)N1Cc1ccc(OC2CCOCC2)nc1	7.35
COc1ccc(CN2C(=S)N(c3ccc(C#N)c(C(F)(F)F)c3)C(=O)C2(C)C)cn1	8.04

Prompt: Which value of pIC50 has been reported for `CC1(C)C(=O)N(c2ccc(C#N)c(C(F)(F)F)c2)C(=S)N1Cc1ccc(-n2ccnc2)nc1` in the records?
Response: 8.14

Prompt: For `CC1(C)C(=O)N(c2ccc(C#N)c(C(F)(F)F)c2)C(=S)N1Cc1ccc(N2CCS(=N)(=O)CC2)nc1` , what is its reported pIC50?
Response: 8.25

====

Listing of entries alongside the reported IC50.
# target: human androgen receptor E709Y mutant (Homo sapiens, UniProt P10275, E710Y)
# procedure.summary: Cell-based transactivation assay for human androgen receptor mutant E709Y
Respond numerically; units are nM and should not be typed.

Consider the following illustrative entries.
CC1(C)C(=O)N(c2ccc(C#N)c(C(F)(F)F)c2)C(=S)N1Cc1ccc(N2CCOCC2)nc1 [Example 4]	77.2
Cc1nc(C(F)(F)F)ccc1CN1C(=S)N(c2ccc(C#N)c(C(F)(F)F)c2)C(=O)C1(C)C [Example 13]	24.7

Prompt: Name the recorded IC50 for CN1C(=S)N(c2ccc(C#N)c(C(F)(F)F)c2)C(=O)C1(C)C [reference compound] .
Response: 117

Prompt: IC50 lookup needed for CC1CN(c2ccc(CN3C(=S)N(c4ccc(C#N)c(C(F)(F)F)c4)C(=O)C3(C)C)cn2)CCO1 (centres unmarked) [Example 7] , thanks.
Response: 22.6

Prompt: Quick check: IC50 of CC1(C)CC(=O)N(c2ccc(CN3C(=S)N(c4ccc(C#N)c(C(F)(F)F)c4)C(=O)C3(C)C)cn2)C1 [Example 16] ?
Response: 143

Prompt: Recorded IC50 for CC(C)(O)COc1ccc(CN2C(=S)N(c3ccc(C#N)c(C(F)(F)F)c3)C(=O)C2(C)C)cn1 [Example 10] , please?
Response: 26.3

Prompt: Look at this compound and give its reported IC50. CC1(C)C(=O)N(c2ccc(C#N)c(C(F)(F)F)c2)C(=S)N1Cc1ccc(C(F)(F)F)nc1 [Example 2]
Response: 14.2

Prompt: Form field: reported IC50 of CC1(C)C(=O)N(c2ccc(C#N)c(C(F)(F)F)c2)C(=S)N1Cc1ccccc1 [Comparative data^4]
Response: 587

Prompt: Query: IC50; subject: Cc1nccn1-c1ccc(CN2C(=S)N(c3ccc(C#N)c(C(F)(F)F)c3)C(=O)C2(C)C)cn1 [Example 15]
Response: 29.9

====

# System: LNCaP cells
# procedure.summary: Proliferation assay with LNCaP cells
# Assay type: cell-based
# conditions: Homo sapiens, 168 h, R1881 (1×10^−10) stimulated growth, day 7, read-out: inhibition IC50 (LNCaP)
Reported IC50 values for a set of compounds

COc1ccc(CN2C(=S)N(c3ccc(C#N)c(C(F)(F)F)c3)C(=O)C2(C)C)cn1 [Example 8]	120 nM
CC1(C)C(=O)N(c2ccc(C#N)c(C(F)(F)F)c2)C(=S)N1Cc1ccc(C(F)(F)F)nc1 [Example 2]	314 nM
Cc1nc(C(F)(F)F)ccc1CN1C(=S)N(c2ccc(C#N)c(C(F)(F)F)c2)C(=O)C1(C)C [Example 13]	124 nM
CC1(C)C(=O)N(c2ccc(C#N)c(C(F)(F)F)c2)C(=S)N1Cc1ccc(-n2ccnc2)nc1 [Example 1]	59 nM
CC1(C)C(=O)N(c2ccc(C#N)c(C(F)(F)F)c2)C(=S)N1Cc1ccc(-n2cnc(C(F)(F)F)c2)nc1 [Example 23]	160 nM

Prompt: Sample CC1(C)C(=O)N(c2ccc(C#N)c(C(F)(F)F)c2)C(=S)N1Cc1ccc(OC2CCOCC2)nc1 [Example 5] — what was its IC50?
Response: 200 nM

Prompt: Consider the compound CC1(C)CC(=O)N(c2ccc(CN3C(=S)N(c4ccc(C#N)c(C(F)(F)F)c4)C(=O)C3(C)C)cn2)C1 [Example 16] and give its measured IC50.
Response: 121 nM

Prompt: Entry under review: CC1(C)C(=O)N(c2ccc(C#N)c(C(F)(F)F)c2)C(=S)N1Cc1ccc(N2CCS(=N)(=O)CC2)nc1 [Example 9] . Reported IC50?
Response: 303 nM

Prompt: What value of IC50 has been recorded for this entry: Cn1cc(-c2ccc(CN3C(=S)N(c4ccc(C#N)c(C(F)(F)F)c4)C(=O)C3(C)C)cn2)cn1 [Example 18]
Response: 117 nM
